assay: Compound was tested for rotarod test in mice and TD50 value at which 50% of trained animals fall off rotarod was reported; format: organism-based; conditions: mouse, in vivo

| COMPOUND | UOM | TD50 |
| --- | --- | --- |
| CCC1(c2ccccc2)C(=O)NC(=O)NC1=O [PHENOBARBITAL] | mg/kg | 86 |

----------
species on record: Mus musculus; test: Compound was evaluated for anticonvulsant activity in mice against electroshock seizures; type: functional
Entries annotated with measured ED50

| MOLECULE | OPERATOR_SYMBOL | ED50 (mg/kg) |
| --- | --- | --- |
| CNCc1nnc(-c2ccccc2-c2ccccc2)s1 | = | 25 |
| CC(C)NCc1nnc(-c2ccccc2-c2ccccc2)s1 | = | 23 |
| CCCCCCOc1ccccc1-c1nnc(CN)s1 | = | 34 |
| CNCc1nnc(-c2ccccc2)s1 | > | 200 |
| c1ccc(CNCc2nnc(-c3ccccc3-c3ccccc3)s2)cc1 | = | 37 |
| NCc1nnc(Cc2ccccc2-c2ccccc2)s1 | = | 30 |
| CCCCCCOc1ccccc1-c1nnc(CNC)s1 | = | 44 |
| NCCCc1nnc(-c2ccccc2-c2ccccc2)s1 | > | 200 |
| CC(N)c1nnc(-c2ccccc2-c2ccccc2)s1 (stereo not drawn) | = | 21 |
| CN(C)Cc1nnc(-c2ccccc2-c2ccccc2)s1 | = | 32 |
| NCCc1nnc(-c2ccccc2-c2ccccc2)s1 | = | 50 |
| Cc1ccccc1NCc1nnc(-c2ccccc2-c2ccccc2)s1 | > | 200 |
| NCc1nnc(Cc2ccccc2)s1 | = | 110 |

----------
species on record: Mus musculus; assay: Compound was evaluated for anticonvulsant activity in mice against metrazole seizures; assay type: functional

| COMPOUND | UOM | OPERATOR_SYMBOL | ED50 |
| --- | --- | --- | --- |
| CC(C)NCc1nnc(-c2ccccc2-c2ccccc2)s1 | mg/kg | = | 35 |
| CC(N)c1nnc(-c2ccccc2-c2ccccc2)s1 (stereo not given) | mg/kg | = | 32 |
| CNCc1nnc(-c2ccccc2-c2ccccc2)s1 | mg/kg | = | 20 |
| NCCCc1nnc(-c2ccccc2-c2ccccc2)s1 | mg/kg | > | 200 |
| NCc1nnc(Cc2ccccc2)s1 | mg/kg | = | 200 |
| CN(C)Cc1nnc(-c2ccccc2-c2ccccc2)s1 | mg/kg | = | 35 |
| c1ccc(CNCc2nnc(-c3ccccc3-c3ccccc3)s2)cc1 | mg/kg | = | 29 |
| CNCc1nnc(-c2ccccc2)s1 | mg/kg | > | 200 |
| Cc1ccccc1NCc1nnc(-c2ccccc2-c2ccccc2)s1 | mg/kg | > | 200 |
| NCCc1nnc(-c2ccccc2-c2ccccc2)s1 | mg/kg | = | 68 |
